Each entry below carries its reported EC50.
Target system: Gastrin/cholecystokinin type B receptor (Homo sapiens)
Sequence (P32239 whole entry): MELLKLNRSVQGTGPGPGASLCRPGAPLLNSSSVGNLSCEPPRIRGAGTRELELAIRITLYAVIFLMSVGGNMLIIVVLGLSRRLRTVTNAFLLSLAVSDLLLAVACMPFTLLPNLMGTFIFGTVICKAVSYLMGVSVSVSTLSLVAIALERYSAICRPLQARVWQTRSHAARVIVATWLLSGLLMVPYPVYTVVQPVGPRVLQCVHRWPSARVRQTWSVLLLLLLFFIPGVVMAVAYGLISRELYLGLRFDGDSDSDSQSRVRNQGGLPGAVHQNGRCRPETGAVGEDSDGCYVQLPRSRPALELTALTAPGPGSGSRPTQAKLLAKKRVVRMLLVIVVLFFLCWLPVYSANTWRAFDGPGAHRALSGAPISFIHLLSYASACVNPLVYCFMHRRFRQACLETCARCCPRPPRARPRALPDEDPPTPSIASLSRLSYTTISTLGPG
Assay comment: Agonist activity at human CCK2R expressed in human 1321N1 cells assessed as IP1 accumulation after 1 hr by HTRF assay
Type: functional, cell-based
Numbered stars: 1 amine (or outer) side, 2 acyl side, 3 side chain; on linkers, the order of the positions; unused ones are H or OH. Square brackets hold non-standard residues; d marks the D form. Peptide text beside a SMILES is read from it. * marks the point of attachment. sY = N[C@@H](Cc1ccc(OS(=O)(=O)O)cc1)C(=O)O; C18 diacid = O=C(O)CCCCCCCCCCCCCCCCC(=O)*; γGlu = O=C(O)[C@H](CCC(=O)[*:2])N[*:1]; Nle = CCCC[C@H](N)C(=O)O; AEEA = NCCOCCOCC(=O)O
State just the number; it will be interpreted in nM.

- CCCC[C@H](NC(=O)[C@H](Cc1ccc(OS(=O)(=O)O)cc1)NC(=O)[C@H](CC(=O)O)NC(=O)COCCOCCNC(=O)COCCOCCNC(=O)CC[C@H](NC(=O)CCCCCCCCCCCCCCCCC(=O)O)C(=O)O)C(=O)NCC(=O)N[C@@H](Cc1c[nH]c2ccccc12)C(=O)N[C@@H](CCCC)C(=O)N[C@@H](CC(=O)O)C(=O)N[C@@H](Cc1c[nH]c2ccccc12)C(N)=O ({C18 diacid-γGlu-AEEA-AEEA}-D[sY][Nle]GW[Nle]DW-NH2): 0.417

// next item, EC50 requested
What value of EC50 has been reported for the following compound? CCCC[C@H](NC(=O)[C@H](Cc1ccc(OS(=O)(=O)O)cc1)NC(=O)[C@H](CC(=O)O)NC(=O)COCCOCCNC(=O)COCCOCCNC(=O)CC[C@H](NC(=O)CCCCCCCCCCCCCCCCC(=O)O)C(=O)O)C(=O)NCC(=O)N[C@@H](Cc1c[nH]c2ccccc12)C(=O)N[C@@H](CCCC)C(=O)N[C@@H](CC(=O)O)C(=O)N[C@@H](Cc1ccc(O)cc1)C(N)=O ({C18 diacid-γGlu-AEEA-AEEA}-D[sY][Nle]GW[Nle]DY-NH2)
0.324
